Tested Target: human 5-HT3A receptor (Homo sapiens)
Sequence (P46098 24-478): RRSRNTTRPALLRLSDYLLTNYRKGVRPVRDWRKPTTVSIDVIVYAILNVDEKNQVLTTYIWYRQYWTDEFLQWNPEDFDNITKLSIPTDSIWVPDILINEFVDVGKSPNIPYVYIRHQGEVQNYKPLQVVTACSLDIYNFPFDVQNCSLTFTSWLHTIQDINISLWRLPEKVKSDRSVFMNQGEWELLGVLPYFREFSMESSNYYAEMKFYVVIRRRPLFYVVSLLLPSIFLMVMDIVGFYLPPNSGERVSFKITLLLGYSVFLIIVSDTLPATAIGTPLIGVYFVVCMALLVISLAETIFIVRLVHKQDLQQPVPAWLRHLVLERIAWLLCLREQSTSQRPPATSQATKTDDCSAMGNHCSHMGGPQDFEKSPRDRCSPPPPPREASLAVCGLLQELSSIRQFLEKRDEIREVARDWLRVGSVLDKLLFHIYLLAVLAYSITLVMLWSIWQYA
Test Protocol: cell-based
Run Parameters: co-application with 5-HT; read-out: half-maximal inhibitory response concentration (IC50) for block of 5-HT-induced 5-HT3A response
pIC50: −log10 of the molar value.
Observation Type: pIC50

INSERT INTO measurements (compound, reported_result) VALUES
  ('CN[C@@H]1Cc2c[nH]c3cccc(c23)[C@H]1/C=C(\C)CO [chanoclavine]', 3.97);
